pIC50: −log10 of the molar value.
Here is a set of compounds with reported pIC50 for Histone-lysine N-methyltransferase EHMT2 (Homo sapiens, UniProt Q96KQ7), compiled from the literature.
Sequence (Q96KQ7 whole entry): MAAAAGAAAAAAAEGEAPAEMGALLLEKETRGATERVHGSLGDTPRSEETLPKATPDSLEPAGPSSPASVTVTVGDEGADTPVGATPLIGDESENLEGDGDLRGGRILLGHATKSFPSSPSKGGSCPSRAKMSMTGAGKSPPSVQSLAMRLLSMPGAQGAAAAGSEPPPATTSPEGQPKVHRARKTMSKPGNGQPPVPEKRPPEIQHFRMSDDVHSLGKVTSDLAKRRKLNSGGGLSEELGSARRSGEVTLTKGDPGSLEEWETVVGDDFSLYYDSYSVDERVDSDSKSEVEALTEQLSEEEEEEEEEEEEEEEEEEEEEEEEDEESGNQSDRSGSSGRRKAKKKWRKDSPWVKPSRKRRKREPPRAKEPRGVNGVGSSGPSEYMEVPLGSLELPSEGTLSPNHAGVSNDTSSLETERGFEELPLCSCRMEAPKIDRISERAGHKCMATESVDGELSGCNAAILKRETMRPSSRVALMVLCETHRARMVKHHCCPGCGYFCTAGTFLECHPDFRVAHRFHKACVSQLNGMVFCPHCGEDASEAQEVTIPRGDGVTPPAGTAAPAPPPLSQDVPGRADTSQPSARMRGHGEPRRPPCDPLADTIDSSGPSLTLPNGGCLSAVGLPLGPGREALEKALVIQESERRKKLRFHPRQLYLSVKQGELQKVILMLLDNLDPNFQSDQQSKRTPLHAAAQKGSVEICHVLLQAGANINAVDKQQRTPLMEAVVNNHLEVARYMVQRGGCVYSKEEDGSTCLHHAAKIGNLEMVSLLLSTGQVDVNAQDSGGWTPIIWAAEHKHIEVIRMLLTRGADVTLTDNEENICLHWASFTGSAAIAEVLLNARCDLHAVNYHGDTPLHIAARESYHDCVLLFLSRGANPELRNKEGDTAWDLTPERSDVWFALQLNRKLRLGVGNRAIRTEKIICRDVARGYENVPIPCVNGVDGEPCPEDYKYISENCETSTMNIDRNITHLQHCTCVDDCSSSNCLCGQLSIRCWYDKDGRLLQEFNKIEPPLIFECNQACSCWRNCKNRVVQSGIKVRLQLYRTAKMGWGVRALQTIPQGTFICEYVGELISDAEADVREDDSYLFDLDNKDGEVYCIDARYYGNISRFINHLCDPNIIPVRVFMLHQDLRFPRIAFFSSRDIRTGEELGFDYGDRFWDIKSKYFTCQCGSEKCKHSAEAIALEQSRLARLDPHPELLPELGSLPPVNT
Observation type: pIC50

1) CCNc1c2c(nc3cc(OCCCN4CC[C@@H](OC)C4)c(OC)cc13)CCC2 = 7.28
2) CNc1c2c(nc3cc(OCCCN4CCCC4)c(OC)cc13)CC(C)(C)C2 = 7.62
3) COc1cc2c(cc1OCCCN1CC[C@H](F)C1)N=C(N)C21CCC1 = 8.43

(A) COc1cc2c(cc1OC)C1(CCC1)C(N)=N2
(B) CCOCCNc1c2c(nc3cc(OCCCN(C)CCF)c(OC)cc13)CCC2
Kindly identify which of A and B has the larger recorded pIC50 value. To answer, give the label that identifies your chosen option.
A
(A: 6.82, B: 5.83)

(A) CNc1c2c(nc3cc(OCCCN4CCC(F)C4)c(OC)cc13)CCC2 (centres unmarked)
(B) COc1cc2c(NC[C@@H](C)OC)c3c(nc2cc1OCCCN1CCCC1)CCC3
(C) CCOCCNc1c2c(nc3cc(OCCCN4CCCC4)c(OC)cc13)CCC2
Reorder the items by pIC50, least to greatest. Your task in answering is to list the labels in the requested order.
A, B, C
(A: 6.60, B: 7.58, C: 8.20)

(P) COc1cc2c(cc1OCCCN1CCCC1)[nH]c1ccnc(N3CCOCC3)c12
(Q) CNc1c2c(nc3cc(OCCCN(C)C)c(OC)cc13)CCC2
(R) CCNc1c2c(nc3cc(OCCCN4CCCC4)c(OC(F)(F)F)cc13)CCC2
Reorder the items by pIC50, least to greatest. Your task in answering is to list the labels in the requested order.
R, P, Q
